pIC50: −log10 of the molar value.
Field: pIC50. System: Proto-oncogene tyrosine-protein kinase Src (Homo sapiens, UniProt P12931). Provenance: assorted publications.

I am curious: what pIC50 value has been reported for Cc1ccn(-c2ccc(-c3ncco3)cc2)c(=O)c1-c1ccc2nc(N)ncc2c1 ?
< 5.30

Item: COc1ccc2c(c1)NC(=O)/C2=C\c1[nH]cc2c1CCOC2=O
< 4.70

And COc1ccc2cc(C(=O)Nc3ccc(O)cc3)c(=N)oc2c1 ?
< 4.49

====

Multi-source literature compilation: pIC50 on UniProt P12931.
// pIC50 here means minus log10 of the molar concentration (mol/L)

If you can, please state the reported pIC50 value of Cc1ccccc1-c1cn(-c2ccccc2)c2ncnc(N)c12 .
5.20

For CC(=O)N[C@@H]1CCCCNC(=O)[C@H]2CCCN2C(=O)[C@H](C(C)C)NC(=O)[C@@H](CC(N)=O)NC(=O)[C@H](C(C)C)NC(=O)[C@@H](Cc2ccc(OP(=O)(O)O)cc2)NC1=O then?
4.14

Param item: Cc1cccc(Nc2nc(N3CCN(CCO)CC3)nc3nc[nH]c23)c1
5.59

====

Header: pIC50 / Proto-oncogene tyrosine-protein kinase Src (Homo sapiens) / multiple publications
pIC50: −log10 of the molar value.

What pIC50 appears in the records for this compound with Proto-oncogene tyrosine-protein kinase Src (Homo sapiens)? Cl.c1ccc(-c2cccc(Nc3ncnc4cc5c(cc34)OCCO5)c2)nc1
< 5.00

Item: COc1cc2c(Nc3c(Cl)ccc4c3OCO4)ncnc2cc1OCCCN1CCCCC1
> 8.40

Try Cc1cccc2c1/C(=C/c1[nH]cc3c1CCOC3=O)C(=O)N2 next.
< 4.70

Entry Cc1c(-c2ccccc2)[nH]c2ncnc(Nc3cccc(Cl)c3)c12 please
< 4.00

Check Cc1cc(Nc2ncc(C(=O)Nc3c(C)cccc3Cl)s2)nc(C)n1 too.
> 9.00

One more compound: CC(=O)Nc1nnc2cc(-c3c(C)cccc3C)cc(C)c2n1
< 4.30

====

Kindly find below IC50 information for UniProtKB P12931 taken from the literature.

For UniProtKB P12931, provide IC50 of O=C1CCCc2nn(-c3ccc(O)cc3)c(-c3ccc(Cl)c(Cl)c3)c21 please.
> 150 µM

Note, next up: CC(C)[C@@H]1NC(=O)[C@H](Cc2ccc(OP(=O)(O)O)cc2)NC(=O)OCCCCCNC(=O)[C@@H]2CCCN2C(=O)[C@H](C(C)C)NC(=O)[C@H](CC(N)=O)NC1=O
> 100 µM

Please answer likewise for COc1ccc2cc(-c3nn(CC4CCNCC4)c4ncnc(N)c34)ccc2c1
> 10 µM

====

Note to self: these compounds have IC50 reported for Proto-oncogene tyrosine-protein kinase Src (Homo sapiens) in various publications.

Please give the measured IC50 for this compound: Cc1cc2nc(Nc3ccc(S(=O)(=O)NCCN4CCCC4)cc3)nnc2cc1N
0.092 µM

And the next one, CN1CCC(n2cc(C3=C(c4c[nH]c5ccccc45)C(=O)NC3=O)c3ccccc32)CC1 ?
83 µM

Can you handle Cc1ccc(NC(=O)c2ccc(Cl)cc2)cc1Nc1nccc(-c2cccnc2)n1 next?
> 100 µM

What do we get for CN(C)CCCc1c(/C=C2\C(=O)Nc3ccc(S(N)(=O)=O)cc32)[nH]c2c1CCCC2 ?
0.6 µM

Do the same for COCCN1CCN(c2ccc(-c3cnn4c(N)c(-c5ccc(NC(=O)OCC(C)C)cc5)cnc34)cc2)CC1 please
1 µM

Please do the same for O=C1NC(=O)c2c1c1c(O)ccc(O)c1c1[nH]c3ccc(O)cc3c21 as well.
5.4 µM

Then COc1ccc(Nc2ncnc3cc(OCCCN4CCOCC4)c(OC)cc23)cc1 ?
0.477 µM
